Entry source: BindingDB's records for doi:10.1021/acschembio.7b00369

Molecular target: cGMP-dependent protein kinase 2 [41-418] (Human)
Construct: 41-418
Sequence (Q13237 41-418): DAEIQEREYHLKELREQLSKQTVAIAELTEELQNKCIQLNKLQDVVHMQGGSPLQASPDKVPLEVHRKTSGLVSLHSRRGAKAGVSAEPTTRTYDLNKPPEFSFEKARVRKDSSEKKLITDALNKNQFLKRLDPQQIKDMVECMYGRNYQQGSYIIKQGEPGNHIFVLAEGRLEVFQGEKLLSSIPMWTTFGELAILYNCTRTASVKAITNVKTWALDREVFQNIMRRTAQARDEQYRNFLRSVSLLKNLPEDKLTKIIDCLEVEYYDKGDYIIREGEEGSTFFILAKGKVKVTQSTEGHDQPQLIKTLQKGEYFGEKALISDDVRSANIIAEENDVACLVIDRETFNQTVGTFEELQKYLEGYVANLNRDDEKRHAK
Assay: Microfluidic Mobility-Shift Assay
Details: pH 7
quantityKind: pEC50
Entry type: numeric. Quantity: pEC50, the -log10 of concentration in molar units.

O=c1c2ncn([C@@H]3O[C@@H]4COP(=O)(O)O[C@H]4[C@H]3O)c2[nH]c2nc(-c3ccccc3)cn12    6.71

With those in mind, consider the next molecule.
[Q] Please give the measured pEC50 for this molecule: "Nc1nc(O)c2nc(Br)n([C@@H]3O[C@@H]4COP(=O)(O)O[C@H]4[C@H]3O)c2n1"
[A] 7.70

* * *

Molecular target: cGMP-dependent protein kinase 2 [41-418,G356E] (Human, UniProt Q13237, G356E)
Construct: 41-418
Sequence (Q13237 41-418 G356E): as the sequence (Q13237 41-418) above, with G316E counted along it
Assay: Microfluidic Mobility-Shift Assay
Settings: pH 7
Measured pEC50 accompanies every entry in the list below.
Entry type: numeric. Quantity: pEC50, the -log10 of concentration in molar units.

O=c1c2ncn([C@@H]3O[C@@H]4COP(=O)(O)O[C@H]4[C@H]3O)c2[nH]c2nc(-c3ccccc3)cn12    8.28

With those in mind, consider the next compound.
[Q] Please give the measured pEC50 for this compound: "Nc1nc(O)c2nc(Br)n([C@@H]3O[C@@H]4COP(=O)(O)O[C@H]4[C@H]3O)c2n1"
[A] 7.52
